study system: Beta-lactamase 1 (Bacillus cereus)
Sequence (P00809 whole entry): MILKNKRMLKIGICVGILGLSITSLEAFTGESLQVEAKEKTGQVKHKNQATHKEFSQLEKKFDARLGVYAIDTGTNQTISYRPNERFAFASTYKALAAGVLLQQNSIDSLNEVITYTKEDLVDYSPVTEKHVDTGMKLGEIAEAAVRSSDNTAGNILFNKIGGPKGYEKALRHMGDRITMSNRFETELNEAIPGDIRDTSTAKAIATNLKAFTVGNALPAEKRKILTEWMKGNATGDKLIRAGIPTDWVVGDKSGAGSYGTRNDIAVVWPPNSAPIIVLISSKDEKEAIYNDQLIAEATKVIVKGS
assay comment: Inhibition of Bacillus cereus beta-lactamase […] using CENTA as substrate up to 30 mins by Lineweaver-Burk plot analysis
value type: Ki (nM)
Give the value in nM but do not write nM after it.

Below, 3 compounds whose answers are already recorded.
>>> result_value("O=C(O)c1cccc(CS(=O)(=O)C(=O)NCB(O)O)c1")
1.3
>>> result_value("O=C(NCB(O)O)S(=O)(=O)c1cc(Cl)cc(-c2nnn[nH]2)c1")
0.2
>>> result_value("O=C(NCB(O)O)S(=O)(=O)c1ccnc(-c2nnn[nH]2)c1")
0.8

Next item in the queue.
Input line: Consider the compound `O=C(NCB(O)O)S(=O)(=O)c1cc(-c2nnn[nH]2)cc(C(F)(F)F)c1` and give its measured Ki.
Output line: 0.05
